Assay: in vivo
Set-up: species or system SD rats
Conditions: male, SD, rat, plasma, intravenous, 0.2 mg/kg; read-out: Volume of Distribution Vd
Measured Metric: Vd (L/kg)

>>> measured_result("C[C@H](NC1=CC(=O)C2(CCCC2)C(=O)N1)c1cc(F)ccc1F")
2.7

====

Assay: in vivo
Parameters: species or system SD rats
Details: male, SD, rat, plasma, intravenous, 0.2 mg/kg; read-out: Initial Concentration C0
Measured Metric: C0 (µM)

>>> measured_result("C[C@H](NC1=CC(=O)C2(CCCC2)C(=O)N1)c1cc(F)ccc1F")
1.46

====

Assay: in vivo
Set-up: species or system SD rats
Conditions: male, SD, rat, plasma, po, 1 mg/kg; read-out: Area Under Curve AUC
Measured Metric: AUC

>>> measured_result("C[C@H](NC1=CC(=O)C2(CCCC2)C(=O)N1)c1cccc(Cl)c1 [Compound 7]")
"14.8 µM·h"
>>> measured_result("C[C@H](NC1=CC(=O)C2(CCCC2)C(=O)N1)c1ccccc1 [Compound 3]")
"7.32 µM·h"
>>> measured_result("Cc1ccc(F)c([C@H](C)NC2=CC(=O)C3(CCCC3)C(=O)N2)c1 [Compound 9]")
"8.11 µM·h"
>>> measured_result("C[C@H](NC1=CC(=O)C2(CCCC2)C(=O)N1)c1cc(F)ccc1F [Compound 10]")
"7.93 µM·h"

====

Experiment: in vivo
Set-up: species or system SD rats
Details: male, SD, rat, plasma, intravenous, 0.2 mg/kg; read-out: Clearance Rate Cl
Measured Metric: clearance (mL/min/kg)

>>> measured_result("C[C@H](NC1=CC(=O)C2(CCCC2)C(=O)N1)c1cc(F)ccc1F")
6

====

Test: in vivo
Set-up: species or system SD rats
Details: male, SD, rat, plasma, po, 1 mg/kg; read-out: Bioavailability F
Measured Metric: bioavailability (%)

>>> measured_result("C[C@H](NC1=CC(=O)C2(CCCC2)C(=O)N1)c1ccccc1")
110
>>> measured_result("C[C@H](NC1=CC(=O)C2(CCCC2)C(=O)N1)c1cccc(Cl)c1")
88.1
>>> measured_result("Cc1ccc(F)c([C@H](C)NC2=CC(=O)C3(CCCC3)C(=O)N2)c1")
76.7

====

half-life: recorded values
Test: in vivo
Design: species or system SD rats
Details: male, SD, rat, plasma, po, 1 mg/kg; read-out: Peak Concentration Time T1/2 (converted)
Measured Metric: half-life (h)

>>> measured_result("C[C@H](NC1=CC(=O)C2(CCCC2)C(=O)N1)c1cccc(Cl)c1")
5.96
>>> measured_result("C[C@H](NC1=CC(=O)C2(CCCC2)C(=O)N1)c1cc(F)ccc1F")
4.83
>>> measured_result("Cc1ccc(F)c([C@H](C)NC2=CC(=O)C3(CCCC3)C(=O)N2)c1")
7.35
>>> measured_result("C[C@H](NC1=CC(=O)C2(CCCC2)C(=O)N1)c1ccccc1")
4.81

====

Experiment: in vivo
Set-up: species or system SD rats
Conditions: male, SD, rat, plasma, po, 1 mg/kg; read-out: Peak Concentration Cmax
Measured Metric: Cmax (nM)

>>> measured_result("C[C@H](NC1=CC(=O)C2(CCCC2)C(=O)N1)c1cccc(Cl)c1 [Compound 7]")
2140
>>> measured_result("C[C@H](NC1=CC(=O)C2(CCCC2)C(=O)N1)c1ccccc1 [Compound 3]")
1380
>>> measured_result("Cc1ccc(F)c([C@H](C)NC2=CC(=O)C3(CCCC3)C(=O)N2)c1 [Compound 9]")
1940
>>> measured_result("C[C@H](NC1=CC(=O)C2(CCCC2)C(=O)N1)c1cc(F)ccc1F [Compound 10]")
1310
